Provide the recorded IC50 for the entries that follow.
biological target: recombinant membrane-bound human mPGEs-1 (Homo sapiens); experiment: Thiobarbituric acid assay (TBA-MDA assay), inhibition of human mPGEs-1; settings: arithmetic mean values
Sequence (O14684 whole entry): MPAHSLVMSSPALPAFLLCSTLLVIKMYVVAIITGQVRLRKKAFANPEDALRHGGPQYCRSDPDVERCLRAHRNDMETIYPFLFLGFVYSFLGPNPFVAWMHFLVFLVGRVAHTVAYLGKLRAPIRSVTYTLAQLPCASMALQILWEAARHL
Give bare numbers, in nM.

Known results for molecules:
Cc1cc2nc(N3CCC(C(=O)N[C@@H]4CCOC4)CC3)n(-c3cccc(C(F)(F)F)n3)c2cc1Cl [Example 2] ... 24
Cc1cc2nc(N3CCC(C(=O)N[C@@H]4CCOC4)CC3)n(-c3ccc(C(F)(F)F)cn3)c2cc1Cl [Example 4] ... 46
Cc1cc2c(cc1Cl)nc(N1CCC(C(=O)N[C@@H]3CCOC3)CC1)n2-c1ccc(C(F)(F)F)cn1 [Example 3] ... 58

// next item, IC50 requested
Bench note: what IC50 did Cc1cc2c(cc1Cl)nc(N1CCC(C(=O)N[C@@H]3CCOC3)CC1)n2-c1cccc(C(F)(F)F)n1 [Example 1] show?
18
